molecular target: rat NaP2b (SLC34A2) (Rattus norvegicus, UniProt Q9JJ09); construct: host or cells: HEK293; assay: Inhibition of NaP2b-mediated Pi (33P) uptake in transfected HEK293 cells, rat NaP2b; assay type: cell-based; conditions: 33P Pi uptake, 0.1 mM phosphate, value given as pIC50 range
Sequence (Q9JJ09 whole entry): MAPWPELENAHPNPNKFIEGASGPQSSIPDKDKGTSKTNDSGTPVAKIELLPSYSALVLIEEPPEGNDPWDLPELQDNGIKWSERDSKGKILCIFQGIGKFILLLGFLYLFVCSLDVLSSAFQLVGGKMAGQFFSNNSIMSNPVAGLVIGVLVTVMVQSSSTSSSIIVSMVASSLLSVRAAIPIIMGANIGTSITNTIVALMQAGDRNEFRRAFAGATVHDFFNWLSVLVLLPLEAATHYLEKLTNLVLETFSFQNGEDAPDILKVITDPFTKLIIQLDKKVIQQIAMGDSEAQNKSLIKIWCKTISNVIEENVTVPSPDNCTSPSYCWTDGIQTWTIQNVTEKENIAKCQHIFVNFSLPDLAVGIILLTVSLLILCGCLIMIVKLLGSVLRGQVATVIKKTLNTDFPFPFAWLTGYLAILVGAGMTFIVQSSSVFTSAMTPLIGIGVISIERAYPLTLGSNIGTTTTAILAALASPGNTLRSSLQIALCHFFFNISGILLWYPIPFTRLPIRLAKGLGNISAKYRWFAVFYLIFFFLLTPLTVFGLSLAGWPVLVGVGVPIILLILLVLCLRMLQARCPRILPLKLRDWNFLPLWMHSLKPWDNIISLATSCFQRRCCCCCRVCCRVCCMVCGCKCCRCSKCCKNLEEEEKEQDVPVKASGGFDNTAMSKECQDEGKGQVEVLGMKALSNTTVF
pIC50: −log10 of the molar value.
observable: pIC50

- mol: "CCN(CC)c1ccc(NC(=O)c2cccc(CCCOCCOCCOCCOCCNS(=O)(=O)c3ccc(C(=O)N4CCN(CCOCCOCCOCCOCCOCCOCCOC)C(=O)C4)cc3)c2)c(-c2cc(C(=O)NCc3cccc(C(F)(F)F)c3)ccn2)c1"
  target_entity: "rat NaP2b (SLC34A2) (Rattus norvegicus, UniProt Q9JJ09)"
  observable: "pIC50"
  value_observed: "5.10 to 6.00"
- mol: "CCN(CC)c1ccc(NC(=O)c2cccc(C(=O)N(C)CCN(C)CCOCCOCCOCCNC(=O)OC(C)(C)C)c2)c(-c2cc(C(=O)N[C@H]3CCCc4ccccc43)ccn2)c1"
  target_entity: "rat NaP2b (SLC34A2) (Rattus norvegicus, UniProt Q9JJ09)"
  observable: "pIC50"
  value_observed: "> 6.00"

pIC50 of CN(CCN1CCC[C@H]1C(=O)NCCOCCOCCOCCC(=O)O)C(=O)c1cccc(C(=O)Nc2ccc(N3CCCCC3)cc2-c2cc(C(=O)N[C@H]3CCCc4ccccc43)ccn2)c1 , assay on rat NaP2b (SLC34A2) (Rattus norvegicus, UniProt Q9JJ09), is 4.50 to 5.00
